Please go through the items and note down their relative binding affinity (RBA).
# test.target: Folate receptor alpha (Homo sapiens)
# procedure.details: Displacement of [3H]folic acid from human folate receptor alpha in chinese hamster RT16 cells assessed as relative binding affinity relative to folic acid
# Type: cell-based
// print number alone

*Q* Quick check: relative binding affinity (RBA) on Folate receptor alpha (Homo sapiens), item CN(Cc1cnc2nc(N)nc(N)c2n1)c1ccc(C(=O)N[C@@H](CCC(=O)O)C(=O)O)cc1 ?
*A* 0.8

*Q* # query: relative binding affinity (RBA) | item Nc1nc2sc(CCc3ccc(C(=O)N[C@@H](CCC(=O)O)C(=O)O)cc3)cc2c(=O)[nH]1 | system: Folate receptor alpha (Homo sapiens)
*A* 0.25

Hello, the source for this data is ChEMBL document CHEMBL1138482, in case you need it.
